- MEASURED TARGET: cloned human h-NK3 receptors expressed in CHO cells (Homo sapiens)
- Construct: expressed in transfected cells; host or cells: CHO cells
- Sequence (P29371 1-465): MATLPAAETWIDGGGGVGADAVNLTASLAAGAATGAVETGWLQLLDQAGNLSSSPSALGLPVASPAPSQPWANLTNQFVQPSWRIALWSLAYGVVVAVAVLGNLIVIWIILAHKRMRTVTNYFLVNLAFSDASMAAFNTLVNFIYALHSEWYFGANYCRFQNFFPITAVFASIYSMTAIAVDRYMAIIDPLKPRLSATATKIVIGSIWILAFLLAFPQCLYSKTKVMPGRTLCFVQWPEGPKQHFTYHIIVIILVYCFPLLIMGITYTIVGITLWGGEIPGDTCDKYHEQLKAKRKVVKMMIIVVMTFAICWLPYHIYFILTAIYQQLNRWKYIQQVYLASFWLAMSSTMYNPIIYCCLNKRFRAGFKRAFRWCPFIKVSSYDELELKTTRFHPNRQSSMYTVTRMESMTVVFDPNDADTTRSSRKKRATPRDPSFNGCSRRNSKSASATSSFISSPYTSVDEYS
- PROCEDURE SUMMARY: Binding experiment for h-NK3 receptors ([3H]-SR-142801 displacement)
- CONDITION SET: [3H]-SR-142801, CHO cells; read-out: h-NK3 pIC50 (converted)
Recorded IC50, one value per entry.

COMPOUND | UNITS SYMBOL | IC50
O=C(C(c1ccccc1)N1CCCC1)N1CCC(N2CCN(C3CCN(C(=O)c4cc(C(F)(F)F)cc(C(F)(F)F)c4)C(Cc4ccccc4)C3)CC2)CC1 (stereo not drawn) | nM | 398
COc1cc(C(=O)N2CCC(N3CCN([C@H]4CCN(C(=O)c5cc(C(F)(F)F)cc(C(F)(F)F)c5)[C@H](Cc5ccccc5)C4)CC3)CC2)cc(OC)c1OC | nM | 251
Cc1cc(C)cc(CN2CCC(N3CCN([C@H]4CCN(C(=O)c5cc(C(F)(F)F)cc(C(F)(F)F)c5)[C@H](Cc5ccccc5)C4)CC3)CC2)c1 | nM | 316
Cc1cccc(C)c1NC(=O)CN1CCC(N2CCN([C@H]3CCN(C(=O)c4cc(C(F)(F)F)cc(C(F)(F)F)c4)[C@H](Cc4ccccc4)C3)CC2)CC1 | nM | 398
O=C(c1cc(F)c(F)cc1F)N1CCC(N2CCN([C@H]3CCN(C(=O)c4cc(C(F)(F)F)cc(C(F)(F)F)c4)[C@H](Cc4ccccc4)C3)CC2)CC1 | nM | 251
O=C(c1cc(C(F)(F)F)cc(C(F)(F)F)c1)N1CCC(N2CCN(C3CCN(Cc4nc5ccccc5[nH]4)CC3)CC2)CC1Cc1ccccc1 (stereo not drawn) | nM | 1000

----------
- MEASURED TARGET: cloned human h-NK2 receptors expressed in Sf9 cells (Homo sapiens)
- Construct: expressed in transfected cells; host or cells: Sf9 cells
- Sequence (P21452 whole entry): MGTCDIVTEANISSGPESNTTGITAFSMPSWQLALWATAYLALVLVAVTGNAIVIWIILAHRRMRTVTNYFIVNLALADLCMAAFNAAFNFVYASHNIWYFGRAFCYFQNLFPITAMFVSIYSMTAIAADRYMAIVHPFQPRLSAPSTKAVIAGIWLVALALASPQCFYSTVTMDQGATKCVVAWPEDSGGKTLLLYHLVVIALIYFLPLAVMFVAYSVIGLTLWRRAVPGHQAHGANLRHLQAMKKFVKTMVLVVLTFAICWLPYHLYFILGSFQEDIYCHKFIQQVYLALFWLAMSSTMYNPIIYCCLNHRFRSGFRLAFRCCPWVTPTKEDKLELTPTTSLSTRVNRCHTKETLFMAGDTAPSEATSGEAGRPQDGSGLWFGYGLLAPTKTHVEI
- PROCEDURE SUMMARY: Binding experiment for h-NK2 receptors ([3H]-SR-48968 displacement)
- CONDITION SET: [3H]-SR-48968, Sf9 cells; read-out: h-NK2 pIC50 (converted)
Param label: returns true when IC50 < 800 nM, returns false otherwise, including exact equality.

MOLECULE | MEASURED TARGET | GROUP LABEL
Cc1cc(C)cc(C(=O)N2CCC(N3CCN(C4CCN(C(=O)c5cc(C(F)(F)F)cc(C(F)(F)F)c5)C(Cc5ccccc5)C4)CC3)CC2Cc2ccccc2)c1 (single isomer, unassigned) [Compound 10] | cloned human h-NK2 receptors expressed in Sf9 cells (Homo sapiens) | true
O=C(c1ccccn1)N1CCC(N2CCN([C@H]3CCN(C(=O)c4cc(C(F)(F)F)cc(C(F)(F)F)c4)[C@H](Cc4ccccc4)C3)CC2)CC1 | cloned human h-NK2 receptors expressed in Sf9 cells (Homo sapiens) | true
COc1cc(CC(=O)N2CCC(N3CCN([C@H]4CCN(C(=O)c5cc(C(F)(F)F)cc(C(F)(F)F)c5)[C@H](Cc5ccccc5)C4)CC3)CC2)cc(OC)c1OC | cloned human h-NK2 receptors expressed in Sf9 cells (Homo sapiens) | false
Cn1cccc1CN1CCC(N2CCN(C3CCN(C(=O)c4cc(C(F)(F)F)cc(C(F)(F)F)c4)C(Cc4ccccc4)C3)CC2)CC1 (stereo not shown) | cloned human h-NK2 receptors expressed in Sf9 cells (Homo sapiens) | true
COc1cc(C(=O)N2CCC(N3CCN([C@H]4CCN(C(=O)c5cc(C(F)(F)F)cc(C(F)(F)F)c5)[C@H](Cc5ccccc5)C4)CC3)CC2)cc(OC)c1OC | cloned human h-NK2 receptors expressed in Sf9 cells (Homo sapiens) | true
O=C(c1cc(F)c(F)cc1F)N1CCC(N2CCN([C@H]3CCN(C(=O)c4cc(C(F)(F)F)cc(C(F)(F)F)c4)[C@H](Cc4ccccc4)C3)CC2)CC1 | cloned human h-NK2 receptors expressed in Sf9 cells (Homo sapiens) | true
O=C(c1cc(C(F)(F)F)cc(C(F)(F)F)c1)N1CCC(N2CCN(C3CCN(C(=O)n4ccnc4)CC3)CC2)CC1Cc1ccccc1 (stereo not shown) | cloned human h-NK2 receptors expressed in Sf9 cells (Homo sapiens) | false
O=C(c1cccc(Cl)c1)N1CCC(N2CCN([C@H]3CCN(C(=O)c4cc(C(F)(F)F)cc(C(F)(F)F)c4)[C@H](Cc4ccccc4)C3)CC2)CC1 | cloned human h-NK2 receptors expressed in Sf9 cells (Homo sapiens) | true
Cc1nnsc1C(=O)N1CCC(N2CCN([C@H]3CCN(C(=O)c4cc(C(F)(F)F)cc(C(F)(F)F)c4)[C@@H](Cc4ccccc4)C3)CC2)CC1 | cloned human h-NK2 receptors expressed in Sf9 cells (Homo sapiens) | false
CC(C)(C)OC(=O)N1CCCCC1C(=O)N1CCC(N2CCN([C@H]3CCN(C(=O)c4cc(C(F)(F)F)cc(C(F)(F)F)c4)[C@H](Cc4ccccc4)C3)CC2)CC1 (stereo partly shown) | cloned human h-NK2 receptors expressed in Sf9 cells (Homo sapiens) | true
O=C(c1cc(C(F)(F)F)cc(C(F)(F)F)c1)N1CCC(N2CCN(C3CCN(Cc4nc5ccccc5[nH]4)CC3)CC2)CC1Cc1ccccc1 (stereo not shown) | cloned human h-NK2 receptors expressed in Sf9 cells (Homo sapiens) | false
Cc1cc(C)cc(CN2CCC(N3CCN([C@H]4CCN(C(=O)c5cc(C(F)(F)F)cc(C(F)(F)F)c5)[C@H](Cc5ccccc5)C4)CC3)CC2)c1 | cloned human h-NK2 receptors expressed in Sf9 cells (Homo sapiens) | true
O=C(c1ccccc1)N1CCC(N2CCN(C3CCN(C(=O)c4cc(C(F)(F)F)cc(C(F)(F)F)c4)C(Cc4ccccc4)C3)CC2)CC1 (stereo not shown) | cloned human h-NK2 receptors expressed in Sf9 cells (Homo sapiens) | true
O=C(c1cc(C(F)(F)F)cc(C(F)(F)F)c1)N1CCC(N2CCN(C3CCN(Cc4cc(C(F)(F)F)cc(C(F)(F)F)c4)CC3)CC2)CC1Cc1ccccc1 (stereo not shown) | cloned human h-NK2 receptors expressed in Sf9 cells (Homo sapiens) | false
Cc1cc(C)cc(C(=O)N2CCC(N3CCN(C4CCN(C(=O)c5cc(C(F)(F)F)cc(C(F)(F)F)c5)C(Cc5ccccc5)C4)CC3)CC2Cc2ccccc2)c1 (single isomer, unassigned) [Compound 11] | cloned human h-NK2 receptors expressed in Sf9 cells (Homo sapiens) | true
O=C(C(c1ccccc1)N1CCCC1)N1CCC(N2CCN(C3CCN(C(=O)c4cc(C(F)(F)F)cc(C(F)(F)F)c4)C(Cc4ccccc4)C3)CC2)CC1 (stereo not shown) | cloned human h-NK2 receptors expressed in Sf9 cells (Homo sapiens) | true
Cc1cccc(C(=O)N2CCC(N3CCN([C@H]4CCN(C(=O)c5cc(C(F)(F)F)cc(C(F)(F)F)c5)[C@H](Cc5ccccc5)C4)CC3)CC2)c1 | cloned human h-NK2 receptors expressed in Sf9 cells (Homo sapiens) | true
O=C(c1cc(F)cc(F)c1)N1CCC(N2CCN([C@H]3CCN(C(=O)c4cc(C(F)(F)F)cc(C(F)(F)F)c4)[C@H](Cc4ccccc4)C3)CC2)CC1 | cloned human h-NK2 receptors expressed in Sf9 cells (Homo sapiens) | true
NC(Cc1ccc(O)cc1)C(=O)N1CCC(N2CCN(C3CCN(C(=O)c4cc(C(F)(F)F)cc(C(F)(F)F)c4)C(Cc4ccccc4)C3)CC2)CC1 (stereo not shown) | cloned human h-NK2 receptors expressed in Sf9 cells (Homo sapiens) | true
